# Lookup of reported normalized growth keyed by entry
- Protocol Notes: chemical genetic growth profiling, strain panel (AID 1159580);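 further: tested at 20 µM; growth read once vehicle control cultures reached saturation at 30 °C; 1 = growth at the plate median or of vehicle wells; lower values mean less growth of the strain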
- Stated Conditions: S. cerevisiae deletion strains, growth OD, locus YOR061W, strain CKA2, active compounds read low
Among all 5,500 compounds or so, about 2,000 (36%) were called active. Another 18% or so got no clear call; they are omitted. This is one part of the list.
Response field accepts a number only; no unit should be typed.

Some solved cases for reference:
Please fill in: normalized growth reported for C/C(=N/Nc1nc(C(C)(C)C)cs1)c1ccc(Cl)c(Cl)c1 = 0.943

Looking up CCn1nc(C)cc1-c1nnc(Sc2ncc([N+](=O)[O-])s2)n1C , I see its normalized growth listed as 0.98

Notebook: CC(C)(C)c1csc(NC(=O)c2ccc(Cl)cc2Cl)n1 , normalized growth read as 0.956

Lab note: CCC(C)Cn1c(Sc2ncc([N+](=O)[O-])s2)n[nH]c1=O (stereo unspecified) gave normalized growth of 0.85

New cases:
Quick note, normalized growth for C#CCOS(=O)OC1CCCCC1Oc1ccc(C(C)(C)C)cc1 (stereo unspecified) landed at 1.01

According to the records, this molecule CCN(CC)CCNc1ccc(CO)c2sc3ccccc3c(=O)c12 displays normalized growth of 1

// recorded normalized growth for CCC(CCC(C)[C@H]1CCC2C3CC=C4C[C@@H](O)CC[C@]4(C)C3CC[C@@]21C)C(C)C (stereo partly specified) : 1.02

The recorded normalized growth for O=c1c(-c2ccccc2)coc2cc(O)cc(O)c12 is 0.869

Per the record, Nc1nc(N)c2nc(-c3ccccc3)c(N)nc2n1 has normalized growth of 0.999

Input COc1ccc(-c2coc3cc(OC)cc(O)c3c2=O)cc1 . Output normalized growth: 0.996

CC(C)(C)c1csc(NC(=O)Nc2ccc(Cl)cc2)n1 yielded normalized growth of 0.732

====

Listed here are compounds together with their documented normalized growth.
- Protocol Notes: chemical genetic growth profiling, strain panel (AID 1159580);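 further: tested at 20 µM; growth read once vehicle control cultures reached saturation at 30 °C; 1 = growth at the plate median or of vehicle wells; lower values mean less growth of the strain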
- Stated Conditions: S. cerevisiae deletion strains, growth OD, locus YJR066W, strain TOR1, active compounds read low
Among all 5,500 compounds or so, about 2,000 (36%) were called active. Roughly 18% stayed inconclusive and do not appear here. This is one part of the list.
API doc: respond with a numeric literal and nothing else, no unit.

For CC(C)c1ccc(-c2cc(=O)c3ccccc3o2)cc1 the compound record lists normalized growth as 0.863

Entry COc1c(O)cccc1O ; normalized growth = 0.977

Entry under test: O=C(NNC(=O)c1csc(-c2cccs2)n1)c1ccc(C(F)(F)F)cc1 . Its normalized growth was 0.486

Quick note, normalized growth for CC[C@]12C=CCN3CC[C@@]4(c5ccc(OC)cc5N(C)C4[C@@](O)(C(=O)OC)[C@@H]1OC(C)=O)[C@@H]32 (stereo partly drawn) landed at 0.909

normalized growth measured on Cc1ncc(C[n+]2csc(CCO)c2C)c(=O)[nH]1 = 0.984

Per the record, N=c1ccc2nc3c(Cl)c4c(c(Cl)c3oc-2c1S(=O)(=O)O)Nc1ccc(N)c(S(=O)(=O)O)c1O4 has normalized growth of 1.14

Per the record, CNCCC=C1c2ccccc2CCc2ccccc21 has normalized growth of 0.923

Value of normalized growth reported for the compound Clc1ccc(-c2csc(Nc3ccccc3)n2)s1 is 0.276

O=C1Nc2ccccc2/C1=N/N=C\c1ccccc1Cl has a reported normalized growth of 0.9

COc1ccc(C2CC(c3ccccc3)=Nc3ccccc3S2)cc1OC (stereo not drawn) has a reported normalized growth of 0.938

Looking up N#Cc1c(Br)cnn1Cc1cc(C(F)(F)F)cc(C(F)(F)F)c1 , I see its normalized growth listed as 0.952

For this compound ( CN(C)CCC=C1c2ccccc2C=Cc2ccccc21 ), measured normalized growth is 0.956

Entry CN(C)CC/C=C1/c2ccccc2COc2ccccc21 ; normalized growth = 0.931

Note to self: normalized growth recorded for COc1ccc(C(=O)/C=C/c2ccccc2)cc1 was 0.841
